System: PPARg homodimer (NR concentration 180 nM)
Experiment: PBM binding z-score (relative to random genomic background probes); higher = stronger binding; sequences stand for … in GC…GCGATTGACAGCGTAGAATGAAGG
Entry flag: Satisfied if PBM binding z-score reaches 1; Not satisfied if it does not.

Reference set (2 entries):
ENTRY_SEQUENCE	TESTED_TARGET	ASSIGNED_CATEGORY
ATATGTAGGTTATCGGGTCAATCAGTTTGCGCAT	PPARg homodimer (NR concentration 180 nM)	Satisfied
ACTAGCAGGCCAATGGTCACTCAAGATTAGTCCG	PPARg homodimer (NR concentration 180 nM)	Not satisfied

Request: Threshold query (PBM binding z-score >= 1) on `CGAACTAGGTCATCCAGGAAAGTGAATACATTGA`
Response: Satisfied

Request: Threshold query (PBM binding z-score >= 1) on `AGTCAAAGTTCAGGACGAGCTAACGTAAAGCACG`
Response: Satisfied

Request: Threshold query (PBM binding z-score >= 1) on `CCTAGCAGCCCAGGGTCACTCAAGCATTTCGCTT`
Response: Satisfied

Request: Threshold query (PBM binding z-score >= 1) on `TCTATTGGTTGAAGGGCAACCGACGAGTCCGTTT`
Response: Satisfied

Request: Threshold query (PBM binding z-score >= 1) on `ATCTCAAGGTAACAAGTTCAGTGAAAGAGAGGAC`
Response: Satisfied

Request: Threshold query (PBM binding z-score >= 1) on `GCAGACAGGTGAAACGCAGGTAAGTCAGGGTGGC`
Response: Not satisfied

Request: Threshold query (PBM binding z-score >= 1) on `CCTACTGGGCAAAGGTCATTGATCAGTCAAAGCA`
Response: Satisfied

Request: Threshold query (PBM binding z-score >= 1) on `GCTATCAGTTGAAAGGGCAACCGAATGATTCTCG`
Response: Not satisfied

Request: Threshold query (PBM binding z-score >= 1) on `GCAGCTAGGTCAACTGATGGTCAGCTAAAGCTCG`
Response: Satisfied

---

Tested on: RARb:RXRa (NR concentration 270 nM, RXRa partner concentration 90 nM)
Experiment: PBM binding z-score (relative to random genomic background probes); higher = stronger binding; sequences stand for … in GC…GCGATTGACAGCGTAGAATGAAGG
Entry flag: criterion met if PBM binding z-score reaches 1; criterion not met if it does not.

ENTRY_SEQUENCE	TESTED_TARGET	ASSIGNED_CATEGORY
CCTAGTTGGTCAGGAGGTCACGCACCGGATATGA	RARb:RXRa (NR concentration 270 nM, RXRa partner concentration 90 nM)	criterion met
TTACCAAGGTGAGGGTCGTTGATCCCTCTGTAGA	RARb:RXRa (NR concentration 270 nM, RXRa partner concentration 90 nM)	criterion met
TCTATTAGTGGATTAGGGCAACCGAAACAGCGGA	RARb:RXRa (NR concentration 270 nM, RXRa partner concentration 90 nM)	criterion not met
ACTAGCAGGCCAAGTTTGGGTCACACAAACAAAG	RARb:RXRa (NR concentration 270 nM, RXRa partner concentration 90 nM)	criterion met

Request: Threshold query (PBM binding z-score >= 1) on `CAAACTAGGTCAACGTCAAAGTCGGTTTGTGCCA`
Response: criterion met

Request: Threshold query (PBM binding z-score >= 1) on `CGAACTAGGTCAGACCAGGACAGTGAAGGATGAT`
Response: criterion met

Request: Threshold query (PBM binding z-score >= 1) on `CGTCCAAGGTCAGAGAGGTCTGTGAATGCCGAGT`
Response: criterion met

Request: Threshold query (PBM binding z-score >= 1) on `GCATATAGGTAATACAAGATGAAAGTCCGATTGT`
Response: criterion not met

Request: Threshold query (PBM binding z-score >= 1) on `TCTTGTAGATCAATGGTTAAGAAAGCCGAAGCCT`
Response: criterion not met

Request: Threshold query (PBM binding z-score >= 1) on `TAGCCTAGCTCAGATCGGGCCAGTATACGCTATA`
Response: criterion not met

Request: Threshold query (PBM binding z-score >= 1) on `ATCTCTAGGTAACCATGTTCAGTGAATGCCGAAC`
Response: criterion not met

Request: Threshold query (PBM binding z-score >= 1) on `CAAACTAGGTCACCGGAACGTCAAAGTCCGCATG`
Response: criterion met

Request: Threshold query (PBM binding z-score >= 1) on `ACAGACAGGTGATGAAGGTAACTCAGGCTATCAT`
Response: criterion not met

---

Test system: LXRa homodimer (NR concentration 270 nM)
Assay: PBM binding z-score (relative to random genomic background probes); higher = stronger binding; sequences stand for … in GC…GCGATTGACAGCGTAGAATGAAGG
MEASURED_ENDPOINT: PBM binding z-score

ENTRY_SEQUENCE	PBM binding z-score
CCAACTAGGTCATCCAGGACAGTGAATACATTGA	1.3
AATAAAGGGTCACTAGGCCAGAGTAGGTACGAAT	1.44
CCTAATTGGTCAGGAGGTCACACACCGGATATGA	2.27
CTCGAAAGGTCGATTGAGGTGAGTATACGGATAA	-0.0633
TGTCAAAGTTCAAATGTAACGTAAGTATCCACAC	5.84
TCTTGTAGATCTATAGAGGTTAAGAAAGTGCGCT	0.171
TCGAGTAGGTTACCAATGGGTCATTCAGCTTTCT	0.134
TTACCGAGGTGAGCTGAGGTCGTTGATCCAACTC	-0.575

Consider `ATCTCTAGGTAAAGATCGTTCAGTGAATGCAAAT` . Its measured PBM binding z-score is -0.123

Consider `CCGACTGGGGCAGAAAGGTTACTATACCATCCGG` . Its measured PBM binding z-score is -0.29

Consider `CGTGCAAGGTCAGCAGGTCAGTGAAAGCGACGTG` . Its measured PBM binding z-score is 0.442

Consider `CCTCGCAGGACAACAGGAGGTCAGAGCTGCCAGA` . Its measured PBM binding z-score is 1.92

---

Overview of reported PBM binding z-score across a group of sequences:
System: PPARg:RXRa 90nM:30nM, anti-RXR (NR concentration 90 nM, RXRa partner concentration 30 nM)
Assay: PBM binding z-score (relative to random genomic background probes); higher = stronger binding; sequences stand for … in GC…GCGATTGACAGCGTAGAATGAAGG
Keep the answer to the number alone.

The examples below pair each entry with its known result.
ENTRY_SEQUENCE	TESTED_TARGET	PBM binding z-score
TAGCCTAGGTCATGGGCCAATATACCACGCGAAC	PPARg:RXRa 90nM:30nM, anti-RXR (NR concentration 90 nM, RXRa partner concentration 30 nM)	2.91
CCGAGTAGGTTACGGGGCATTCAGGCAACGGTGA	PPARg:RXRa 90nM:30nM, anti-RXR (NR concentration 90 nM, RXRa partner concentration 30 nM)	2.95
TCTCGGAGGACACGAAGGTCCGAGCTTTCCAGAG	PPARg:RXRa 90nM:30nM, anti-RXR (NR concentration 90 nM, RXRa partner concentration 30 nM)	1.12
ATCTATAGGTAAAAGTTCAGTGAATCCCGAGGAT	PPARg:RXRa 90nM:30nM, anti-RXR (NR concentration 90 nM, RXRa partner concentration 30 nM)	7.36

# evaluate next
Query `TCATATAGGTAAACAGGTGAAAATCCGTAAGTTA` on PPARg:RXRa 90nM:30nM, anti-RXR (NR concentration 90 nM, RXRa partner concentration 30 nM); PBM binding z-score returned: 3.6

---

System: PPARg:RXRa IVT, anti-PPARg (NR concentration 270 nM, RXRa partner concentration 90 nM)
Assay: PBM binding z-score (relative to random genomic background probes); higher = stronger binding; sequences stand for … in GC…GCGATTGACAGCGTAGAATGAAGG
Entry flag: satisfied if PBM binding z-score reaches 4; not satisfied if it does not.

ENTRY_SEQUENCE	ASSIGNED_CATEGORY
TCTTGTAGATCATTAGAGGTTAAGAAAGTGCGCT	not satisfied

Request: Threshold query (PBM binding z-score >= 4) on `TCTTATAGGTAAACAGGTGAAAGTCCGTAAGTTA`
Response: satisfied

Request: Threshold query (PBM binding z-score >= 4) on `AATACAGTGTCATCGTAGGCCAGAGTACGCACAG`
Response: not satisfied

Request: Threshold query (PBM binding z-score >= 4) on `CCTCGGCGGACAGAAGGTCAGAGCTGTCCGCTTT`
Response: not satisfied

Request: Threshold query (PBM binding z-score >= 4) on `TCTCCTAGGTCAACGATGGTCAGCTAATCTGCTA`
Response: satisfied

Request: Threshold query (PBM binding z-score >= 4) on `TCTTGTAGATCAAGCAGGATAAGAAAGCCTGAGT`
Response: not satisfied

Request: Threshold query (PBM binding z-score >= 4) on `TCGAGTAGGTTAGTCGGGGCATTTAGCCAACATA`
Response: not satisfied
